- Tested on: Escherichia coli
- MEASUREMENT_SETUP: Concentration 32 ug.mL-1;; ASSAY_TEST Inhibition of Bacterial Growth; detection method Absorption (OD600); MEDIA CAMHB; plate type 384well; NBS; CORNING #3640; time 18 hr
- Description: Antibacterial activity against Escherichia coli ATCC 25922 (CO-ADD:GN_001); MIC in CAMBH media using NBS plates, by OD(600)
Measured potencies and affinities stand elsewhere.
RESULT_TYPE: Inhibition

For orientation, consider the following solved cases.
CC(C)CCNC(=O)Cn1nc2n(CC(C)C)c(=O)c3sccc3n2c1=O; -1.56%
CCOc1ccc(-n2ccn3c(SCC(=O)c4ccc(C)cc4C)nnc3c2=O)cc1; -6.14%
CCc1ccc(N(Cc2ccc(OC)cc2)S(=O)(=O)c2cccn3c(C)nnc23)cc1; -2.97%
NC(=O)Cn1nc2n(CCC(=O)NC3CCCCC3)c(=O)c3ccccc3n2c1=O; 0.77%

In: // returns reported Inhibition for input COc1ccc(NC(=O)c2ccc3nn(CC(=O)Nc4cc(Cl)ccc4OC)c(=O)n3c2)cc1
Out: -6.87%

====

- Tested on: Escherichia coli
- MEASUREMENT_SETUP: Concentration 32 ug.mL-1;; ASSAY_TEST Inhibition of Bacterial Growth; detection method Absorption (OD600); MEDIA CAMHB; plate type 384well; NBS; CORNING #3640; time 18 hr
Results with a measured potency or affinity are listed apart.
RESULT_TYPE: Inhibition
Please report the result as a number followed by the unit.

In: GET /values?readout=Inhibition&item= Cc1ccc(-n2ccn3c(=O)n(Cc4cccc(Cl)c4)nc3c2=O)cc1C
Out: 0.11%

In: Which value of Inhibition has been reported for Cc1ccc(Sc2nccn3c(=O)n(CC(=O)Nc4cccc(Cl)c4)nc23)c(C)c1 in the records?
Out: -3.61%

In: Recorded Inhibition for COc1ccccc1NC(=O)Cn1nc2c3cc(-c4ccc(Cl)cc4)nn3ccn2c1=O , please?
Out: -3.99%

In: Need Inhibition, item COc1cccc(Sc2nc3ccccc3n3c(=O)n(CC(=O)Nc4cccc(F)c4)nc23)c1
Out: -1.66%

In: Quick check: Inhibition of O=C(Cn1nc2c3c4c(sc3ncn2c1=O)CCCC4)N1CCc2ccccc2C1 ?
Out: 2.08%

In: Form field: reported Inhibition of COc1cc(NC(=O)Cn2nc3c4c5c(sc4ncn3c2=O)CCCC5)cc(OC)c1OC
Out: -3.63%

In: What measured Inhibition goes with COc1ccc(NC(=O)Cn2nc3ccc(SCc4ccc(Cl)cc4)nn3c2=O)cc1 ?
Out: -10.26%

In: What value of Inhibition has been reported for the following compound? O=C(Cn1nc2c(N3CCOCC3)nc3ccccc3n2c1=O)NCc1ccccc1Cl
Out: -4.63%

In: Returns the measured Inhibition for the input compound. Input: CCOc1ccc(N(Cc2ccc(F)cc2)S(=O)(=O)c2ccc3nncn3c2)cc1
Out: -16.83%

In: I am curious: what Inhibition value has been reported for CCOC(=O)c1ccc(NC(=O)Cn2nc3ccc(Sc4cccc(F)c4)nn3c2=O)cc1 ?
Out: -1.47%

====

- Tested on: Escherichia coli
- MEASUREMENT_SETUP: Concentration 32 ug.mL-1;; ASSAY_TEST Inhibition of Bacterial Growth; detection method Absorption (OD600); MEDIA CAMHB; plate type 384well; NBS; CORNING #3640; time 18 hr
Measured potencies and affinities stand elsewhere.
RESULT_TYPE: Inhibition (%)
Numeric only. Scale: %

Past entries and their recorded results:
COc1cc(NC(=O)Cn2nc3ccc(SCc4ccc(Cl)cc4)nn3c2=O)cc(OC)c1; -10.62
COc1ccc(C)cc1NC(=O)Cn1nc2ccc(SC(C)(C)C)nn2c1=O; -6.39
Cc1ccc(NC(=O)Cn2nc3c4cc(-c5ccc(C)c(C)c5)nn4ccn3c2=O)cc1C; -7.36
O=C(CSc1nnc2c(=O)n(-c3ccccc3)ccn12)Nc1ccc(Br)cc1; -4.01
CCc1ccccc1Sc1nccn2c(=O)n(CC(=O)Nc3c(C)cccc3C)nc12; 0

In: Reported Inhibition, molecule COc1ccccc1N1CCN(C(=O)CSc2nnc3c(=O)n(-c4ccc(F)cc4)ccn23)CC1 : ____
Out: 2.55

====

- System: Staphylococcus aureus
- MEASUREMENT_SETUP: Concentration 32 ug.mL-1;; ASSAY_TEST Inhibition of Bacterial Growth; detection method Absorption (OD600); MEDIA CAMHB; plate type 384well; NBS; CORNING #3640; time 18 hr
- Description: Antibacterial activity against Staphylococcus aureus MRSA ATCC 43300 (CO-ADD:GP_020); MIC in CAMBH media, using NBS plates, by OD(600)
Entries with a potency or affinity are not part of this list.
RESULT_TYPE: Inhibition (%)
# number only, unit % dropped from output

In: Look at this compound and give its reported Inhibition. O=C(CSc1nnc2c(=O)n(-c3ccccc3)ccn12)Nc1ccc2c(c1)OCCO2
Out: 8.84

In: Any idea what its Inhibition is? The compound is CC(C)CCn1c(=O)c2sccc2n2c(=O)n(CC(=O)NC(C)C)nc12
Out: -2.24

In: Quick one: Inhibition for Cc1cccc(NC(=O)Cn2nc3ccc(-c4ccc(Cl)cc4)nn3c2=O)c1 ?
Out: 7.34

In: Reported Inhibition for Cc1ccc(-c2ccc3nn(Cc4ccc(Cl)cc4)c(=O)n3n2)cc1C : what is it?
Out: -1.51

In: Fill in the blank: the reported Inhibition of CCC(Sc1nnc2c(=O)n(-c3ccccc3)ccn12)C(=O)Nc1cc(F)ccc1F (stereo not given) is ____.
Out: 6.45

In: Entry under review: COc1ccc(NC(=O)Cn2nc3c4cc(-c5ccc(C)c(C)c5)nn4ccn3c2=O)c(OC)c1 . Reported Inhibition?
Out: -8.81

In: Item Cc1ccc(Sc2nccn3c(=O)n(CC(=O)Nc4ccc(Br)cc4C)nc23)c(C)c1 has what recorded Inhibition?
Out: -15.15

In: Quick one: Inhibition for CC(C)CCn1c(=O)c2ccc(C(=O)NC3CCCC3)cc2n2c(=S)[nH]nc12 ?
Out: -2

In: What value of measured Inhibition is listed for O=C(Cn1nc2c3sccc3ncn2c1=O)Nc1ccc2c(c1)OCO2 ?
Out: -1.71

In: I'd like to know its Inhibition. The compound in question is CCc1ccccc1Sc1nccn2c(=O)n(CC(=O)Nc3cc(Cl)c(OC)cc3OC)nc12
Out: -16.84

====

- Test system: Staphylococcus aureus
- MEASUREMENT_SETUP: Concentration 32 ug.mL-1;; ASSAY_TEST Inhibition of Bacterial Growth; detection method Absorption (OD600); MEDIA CAMHB; plate type 384well; NBS; CORNING #3640; time 18 hr
Potency and affinity values are given separately.
As shown below, each of these compounds has a reported Inhibition value.
Your answer should be a plain number; it is taken to be in %.

COC(=O)c1ccccc1NC(=O)Cn1nc2c(Oc3ccc(C)cc3)nccn2c1=O; -0.21
CCc1nnc2c(SCC(=O)Nc3ccc(C(C)=O)cc3)nc3ccccc3n12; 4.71
COc1ccccc1CNC(=O)Cn1nc2c(N3CCSCC3)nccn2c1=O; 5.62
COc1ccc(-c2cc3c4nnc(SCC(=O)NCc5ccccc5Cl)n4ccn3n2)cc1; -4.22

In: Could you share which Inhibition value was measured for CC(C)(C)Sc1ccc2nn(CC(=O)Nc3ccc(Cl)cc3)c(=O)n2n1 ?
Out: 3.13

In: What value of measured Inhibition is listed for Cc1ccc(-c2ccc3nn(Cc4cc(F)cc(F)c4)c(=O)n3n2)cc1C ?
Out: 13.44

In: # get_value(readout='Inhibition', item= CCc1ccccc1Sc1nccn2c(=O)n(CC(=O)Nc3c(C)cccc3C)nc12 )
Out: 13.44

In: May I ask what Inhibition has been recorded for COc1cccc(Oc2nccn3c(=O)n(CC(=O)Nc4ccc5c(c4)OCCO5)nc23)c1 ?
Out: 9.52

In: Which Inhibition is reported for this compound? Cc1cc2nn(CC(=O)Nc3cc(F)ccc3C)c(=O)n2c(Nc2ccc(F)cc2)n1
Out: 4.25

In: Quick one: Inhibition for O=C(Cn1nc2c(Sc3ccccc3)nccn2c1=O)Nc1cccc(Cl)c1F ?
Out: 9.57

In: Need Inhibition of Cc1ccc(NC(=O)CSc2nnc3ccc(C(=O)Nc4cccc(F)c4)cn23)cc1F , thanks.
Out: 14.43

In: What Inhibition value was documented for this compound, COc1ccc(NC(=O)Cn2nc3c4cc(-c5ccc(C)c(C)c5)nn4ccn3c2=O)cc1OC ?
Out: 7.31

In: Request the reported Inhibition associated with O=c1c2nn(Cc3ccccc3Cl)c(=O)n2ccn1-c1ccccc1
Out: -1.67

In: Data request, read-out Inhibition, for CCC(C)NC(=O)Cn1nc2n(Cc3cccs3)c(=O)c3sccc3n2c1=O (stereo unspecified)
Out: 3.01

In: Request the reported Inhibition associated with COc1ccc(N(Cc2cc(F)cc(F)c2)S(=O)(=O)c2ccc3nnc(C)n3c2)cc1
Out: 12.66

In: Give its Inhibition value. Item: Cc1ccc(-n2ccn3c(=O)n(Cc4ccccc4)nc3c2=O)cc1C
Out: 5.93

In: What measured Inhibition goes with COc1cccc(CN(c2cccc(C)c2)S(=O)(=O)c2ccc3nnc(C)n3c2)c1 ?
Out: 1.31

In: Which Inhibition value is on record for CC(C)CCNC(=O)Cn1nc2n(Cc3cccs3)c(=O)c3sccc3n2c1=O ?
Out: 3.31
